Reported IC50 values are given for each entry in this list.
target_or_system: AKT2 (Homo sapiens (Human))
Sequence (P31751 whole entry): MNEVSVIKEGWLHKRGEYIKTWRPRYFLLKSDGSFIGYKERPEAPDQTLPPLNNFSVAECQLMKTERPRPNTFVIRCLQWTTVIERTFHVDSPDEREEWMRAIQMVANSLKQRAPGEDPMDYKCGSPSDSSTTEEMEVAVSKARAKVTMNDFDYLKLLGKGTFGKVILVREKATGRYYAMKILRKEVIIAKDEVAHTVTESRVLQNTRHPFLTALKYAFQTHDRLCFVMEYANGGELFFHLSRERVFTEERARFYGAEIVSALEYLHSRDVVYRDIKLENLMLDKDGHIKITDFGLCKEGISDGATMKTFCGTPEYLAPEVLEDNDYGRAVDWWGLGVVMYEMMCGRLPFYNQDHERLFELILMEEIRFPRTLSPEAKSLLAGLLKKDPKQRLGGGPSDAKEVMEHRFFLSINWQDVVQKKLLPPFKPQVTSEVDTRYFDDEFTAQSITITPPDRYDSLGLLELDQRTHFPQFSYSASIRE
test_summary: Live cell target engagement (NanoBRET) in HEK293 cells
Assay type: cell-based
condition_info: HEK293, 2 hours at 37° C.

Completed entries (count: 2):
1) Nc1ncccc1-c1nc2cccnc2n1-c1ccc(CNCCc2ccc(C=O)c(C(F)F)c2)cc1; > 500 nM
2) CC(=O)Nc1cccc(-c2ccc3nc(-c4cccnc4N)n(-c4ccc(CNCCc5ccc(C=O)c(O)c5F)cc4)c3n2)c1; > 500 nM

Value of measured IC50 for the entry `Nc1ncccc1-c1nc2ccc(-c3ccccc3)nc2n1-c1ccc(CNC(=O)Cc2ccc(C=O)c(O)c2F)cc1` : 100 to 500 nM

Lab book: IC50 of `Nc1ncccc1-c1nc2ccc(-c3cccnc3)nc2n1-c1ccc(CNCCc2ccc(C=O)c(O)c2F)cc1` noted as 100 to 500 nM

The reported value for `Nc1ncccc1-c1nc2ccc(-c3ccccc3)nc2n1-c1ccc(CNC(=O)C2(c3ccc(C=O)c(O)c3)CC2)cc1` in terms of IC50 is > 500 nM

`Nc1ncccc1-c1nc2ccc(N3CCOCC3)nc2n1-c1ccc(C2(NC(=O)Cc3ccc(C=O)c(O)c3F)CC2)cc1` yielded IC50 of 100 to 500 nM

The compound identified as `Cn1cc(-c2ccc3nc(-c4cccnc4N)n(-c4ccc(CNC(=O)Cc5ccc(C=O)c(O)c5)cc4)c3n2)cn1` registered its IC50 at > 500 nM
